experimental-target: EGFR wild-type (Homo sapiens, UniProt P00533)
Construct: Recombinant human EGFR (amino acids 668–1210, #PR7295B)
Sequence (P00533 668-1210): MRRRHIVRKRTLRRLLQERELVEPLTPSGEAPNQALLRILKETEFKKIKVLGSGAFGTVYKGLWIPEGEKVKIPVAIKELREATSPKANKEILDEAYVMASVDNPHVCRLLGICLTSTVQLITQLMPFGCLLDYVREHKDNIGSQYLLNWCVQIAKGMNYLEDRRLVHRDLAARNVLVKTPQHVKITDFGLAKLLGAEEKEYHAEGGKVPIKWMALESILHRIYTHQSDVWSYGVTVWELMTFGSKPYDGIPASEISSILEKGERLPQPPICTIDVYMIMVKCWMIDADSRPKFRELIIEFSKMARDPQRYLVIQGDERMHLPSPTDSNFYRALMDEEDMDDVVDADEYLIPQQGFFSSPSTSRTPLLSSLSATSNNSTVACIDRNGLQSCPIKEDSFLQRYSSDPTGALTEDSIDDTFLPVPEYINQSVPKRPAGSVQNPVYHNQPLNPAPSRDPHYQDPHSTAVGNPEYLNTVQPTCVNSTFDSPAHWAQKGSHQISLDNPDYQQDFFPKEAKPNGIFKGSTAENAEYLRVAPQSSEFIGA
procedure-text: Fluorescence turn-on response / titration of HX103 with recombinant EGFR
condition-set: HX103 5 µM, EGFR 0 to 6 µM in PBS, one-site specific binding model; read-out: apparent binding affinity (Kd)
quantity-name: Kd (µM)
Give a bare numeral; the unit µM is implied.

Could you tell me which Kd is on file for COc1cc2c(Nc3ccc(F)c(Cl)c3)ncnc2cc1OCCCNc1ccc(S(=O)(=O)N(C)C)c2nonc12 ?
2.7

====

experimental-target: EGFR 19del (Homo sapiens, UniProt P00533, DEL746-750)
Sequence (P00533 with tags, fused parts or gaps DEL746-750): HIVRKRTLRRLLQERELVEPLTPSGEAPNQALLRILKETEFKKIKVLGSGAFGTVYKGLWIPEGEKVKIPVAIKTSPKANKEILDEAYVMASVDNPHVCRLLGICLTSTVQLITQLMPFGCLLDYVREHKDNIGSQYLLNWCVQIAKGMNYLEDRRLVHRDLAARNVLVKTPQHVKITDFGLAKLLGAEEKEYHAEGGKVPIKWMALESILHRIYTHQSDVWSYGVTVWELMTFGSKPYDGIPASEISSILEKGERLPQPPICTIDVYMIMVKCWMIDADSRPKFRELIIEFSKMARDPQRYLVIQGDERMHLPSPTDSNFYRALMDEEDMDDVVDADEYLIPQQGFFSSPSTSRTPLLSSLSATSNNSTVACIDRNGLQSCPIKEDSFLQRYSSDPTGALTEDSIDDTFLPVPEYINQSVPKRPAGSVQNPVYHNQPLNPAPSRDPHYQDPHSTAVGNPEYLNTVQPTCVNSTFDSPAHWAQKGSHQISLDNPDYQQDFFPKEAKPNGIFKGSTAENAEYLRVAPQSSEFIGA
procedure-text: Kinase inhibition assay (fluorescent mobility-shift assay)
condition-set: n = 3
quantity-name: IC50

Could you tell me which IC50 is on file for COc1cc2c(Nc3ccc(F)c(Cl)c3)ncnc2cc1OCCCNc1ccc(S(=O)(=O)N(C)C)c2nonc12 ?
1.3 nM
